# Tested on: 519858-162-T-J1-PDC complex spheroid viability
# Test Summary: Anticancer human tumor 519858-162-T-J1-PDC patient-derived colon adenocarcinoma cell line growth inhibition [GQUAD]
# Test Context: second compound 0.316 µM; first compound 0.0316 µM; stronger effect = lower value
# note: boundary value 80% maps to 0; viability, T/C below it maps to 1

CC1COCCN1c1cc(C2(O)CC3CCC(C2)O3)c2cnn(-c3ccn[nH]3)c2n1 (stereo unspecified) + Cc1cnc(CNC(=O)c2c(=O)c3ccc(N4CCCN(C)CC4)nc3n3c2sc2ccccc23)cn1; 1
O=C(c1cc(Cc2n[nH]c(=O)c3ccccc23)ccc1F)N1CCN(C(=O)C2CC2)CC1 + Cc1cnc(CNC(=O)c2c(=O)c3ccc(N4CCCN(C)CC4)nc3n3c2sc2ccccc23)cn1; 0
C=CCn1c(=O)c2cnc(Nc3ccc(N4CCN(C)CC4)cc3)nc2n1-c1cccc(C(C)(C)O)n1 + CN(C)c1ccc(Nc2c3ccc(NC(=O)CCN4CCCC4)cc3nc3cc(NC(=O)CCN4CCCC4)ccc23)cc1; 0
CC1COCCN1c1cc(-c2ccnn2C)c2ccnc(-c3ccn[nH]3)c2n1 (stereo unspecified) + CN(C)c1ccc(Nc2c3ccc(NC(=O)CCN4CCCC4)cc3nc3cc(NC(=O)CCN4CCCC4)ccc23)cc1; 0
Cc1cccc(N(C)C(=O)C2C(O)CCN2c2nc(C)cc(C(F)(F)F)c2C#N)c1 (stereo unspecified) + CN(C)c1ccc(Nc2c3ccc(NC(=O)CCN4CCCC4)cc3nc3cc(NC(=O)CCN4CCCC4)ccc23)cc1; 0

Data request: Is viability, T/C strictly under 80% for the entry O=C(NO)c1cnc(N2CCN(S(=O)(=O)c3ccc4ccccc4c3)CC2)nc1 + Cc1cnc(CNC(=O)c2c(=O)c3ccc(N4CCCN(C)CC4)nc3n3c2sc2ccccc23)cn1 ?
Data returned: 0

Data request: Is viability, T/C strictly under 80% for the entry CC1COCCN1c1cc(C2(S(C)(=N)=O)CC2)nc(-c2ccnc3[nH]ccc23)n1 (stereo unspecified) + CN(C)c1ccc(Nc2c3ccc(NC(=O)CCN4CCCC4)cc3nc3cc(NC(=O)CCN4CCCC4)ccc23)cc1 ?
Data returned: 0

Data request: Is viability, T/C strictly under 80% for the entry CC1COCCN1c1cc(C2(S(C)(=N)=O)CC2)nc(-c2ccnc3[nH]ccc23)n1 (stereo unspecified) + Cc1[nH]c2ccc(F)cc2c1-c1nc2c3cccnc3c3ncccc3c2[nH]1 ?
Data returned: 0

====

Below, each of the molecules is paired with its reported IC50 value.
# Test system: 519858-162-T-J1-PDC complex spheroid viability
# Test Summary: Anticancer human tumor 519858-162-T-J1-PDC cell line growth inhibition [GQUAD];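 note: spheroids exposed to compounds for 7 days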
# Test Context: curve of first compound; second compound 1 µM

Reference set, count: 8
CCc1c2c(nc3ccc(O)cc13)-c1cc3c(c(=O)n1C2)COC(=O)[C@]3(O)CC + Cc1cnc(CNC(=O)c2c(=O)c3ccc(N4CCCN(C)CC4)nc3n3c2sc2ccccc23)cn1; > 316 nM
CC(C)n1c(=O)n(C)c2cnc3cc(F)c(-c4ccc(OCCCN5CCCCC5)nc4)cc3c21 + Cc1[nH]c2ccc(F)cc2c1-c1nc2c3cccnc3c3ncccc3c2[nH]1; > 10000 nM
O=C(NO)c1cnc(N2CCN(S(=O)(=O)c3ccc4ccccc4c3)CC2)nc1 + Cc1[nH]c2ccc(F)cc2c1-c1nc2c3cccnc3c3ncccc3c2[nH]1; 251 nM
CC1COCCN1c1cc(-c2ccnn2C)c2ccnc(-c3ccn[nH]3)c2n1 (stereo unspecified) + Cc1cnc(CNC(=O)c2c(=O)c3ccc(N4CCCN(C)CC4)nc3n3c2sc2ccccc23)cn1; 232 nM
C=CCn1c(=O)c2cnc(Nc3ccc(N4CCN(C)CC4)cc3)nc2n1-c1cccc(C(C)(C)O)n1 + CN(C)c1ccc(Nc2c3ccc(NC(=O)CCN4CCCC4)cc3nc3cc(NC(=O)CCN4CCCC4)ccc23)cc1; > 10000 nM
COc1ncnc(C2CC2)c1-c1ncc2cnn(Cc3ccc(-c4nc(C(F)(F)F)cn4C(C)C)cc3)c2n1 + Cc1cnc(CNC(=O)c2c(=O)c3ccc(N4CCCN(C)CC4)nc3n3c2sc2ccccc23)cn1; 809 nM
CC[C@@]1(O)C(=O)OCc2c1cc1n(c2=O)Cc2cc3c(CN(C)C)c(O)ccc3nc2-1 + Cc1[nH]c2ccc(F)cc2c1-c1nc2c3cccnc3c3ncccc3c2[nH]1; > 316 nM
Cn1ncnc1[C@H]1c2n[nH]c(=O)c3cc(F)cc(c23)N[C@@H]1c1ccc(F)cc1 + Cc1cnc(CNC(=O)c2c(=O)c3ccc(N4CCCN(C)CC4)nc3n3c2sc2ccccc23)cn1; > 316 nM

Data request: For COc1ccc([C@@H](O)c2cc(-c3ncnc4cc(N5CCOCC5)ccc34)c(F)cc2Cl)nn1 + CN(C)c1ccc(Nc2c3ccc(NC(=O)CCN4CCCC4)cc3nc3cc(NC(=O)CCN4CCCC4)ccc23)cc1 , what is its reported IC50?
Data returned: > 10000 nM

Data request: For Cn1ncnc1[C@H]1c2n[nH]c(=O)c3cc(F)cc(c23)N[C@@H]1c1ccc(F)cc1 + CN(C)c1ccc(Nc2c3ccc(NC(=O)CCN4CCCC4)cc3nc3cc(NC(=O)CCN4CCCC4)ccc23)cc1 , what is its reported IC50?
Data returned: > 316 nM

Data request: For C#Cc1c(F)ccc2cc(O)cc(-c3ncc4c(N5CC6CCC(C5)N6)nc(OCC56CCCN5CC(F)C6)nc4c3F)c12 (stereo unspecified) + Cc1cnc(CNC(=O)c2c(=O)c3ccc(N4CCCN(C)CC4)nc3n3c2sc2ccccc23)cn1 , what is its reported IC50?
Data returned: 3610 nM
